Listing of entries alongside the reported GI50.
Test system: RXF 393 renal
Assay: NCI tumour cell line growth inhibition, 48 h
Endpoint Label: GI50

[
  {
    "Structure Smiles String": "COc1ccc2c(c1)/C(=C\\c1cccnc1)C(=O)N2",
    "Endpoint Label": "GI50",
    "Measured Value": "13.4 µM"
  },
  {
    "Structure Smiles String": "CCCCCCCNc1nc(C(=O)OCC)ncc1-c1ccc(C(F)(F)F)cc1",
    "Endpoint Label": "GI50",
    "Measured Value": "19 µM"
  },
  {
    "Structure Smiles String": "C[C@H](NC(=O)[C@@H]1CSSC[C@@H](NC(=O)c2nc3ccccc3cc2O)C(=O)NCC(=O)N1C)c1ccccc1",
    "Endpoint Label": "GI50",
    "Measured Value": "1.31 µM"
  },
  {
    "Structure Smiles String": "O=C1c2ccc([N+](=O)[O-])cc2-c2c1c1ccccc1c(=O)n2CCCNCCCNCCCn1c2c(c3ccc([N+](=O)[O-])cc3c1=O)C(=O)c1ccccc1-2",
    "Endpoint Label": "GI50",
    "Measured Value": "5.51 µM"
  }
]

---

Tested on: HCT-116 colon
Assay: NCI tumour cell line growth inhibition, 48 h

[
  {
    "Structure Smiles String": "Oc1ccc(C(c2ccc(O)cc2)c2ccc(Cl)cn2)cc1",
    "Target Desc": "HCT-116 colon",
    "Reading Qualifier": ">",
    "TGI [µM]": 100
  },
  {
    "Structure Smiles String": "CCN(CC)CCNc1ccc([N+](=O)[O-])c2sc3ccccc3c(=O)c12",
    "Target Desc": "HCT-116 colon",
    "Reading Qualifier": "=",
    "TGI [µM]": 1.56
  },
  {
    "Structure Smiles String": "Cc1ccc(S(=O)(=O)NNC(=O)c2cc(C)ccc2NC(=O)C23CC4CC(CC(C4)C2)C3)cc1",
    "Target Desc": "HCT-116 colon",
    "Reading Qualifier": ">",
    "TGI [µM]": 100
  },
  {
    "Structure Smiles String": "O=[N+]([O-])c1ccc(S[C@@H]2[C@H]3c4c(-c5ccccc5)[nH]c(-c5ccccc5)c4[C@@H]2C[C@H]3Cl)cc1",
    "Target Desc": "HCT-116 colon",
    "Reading Qualifier": "=",
    "TGI [µM]": 7.86
  },
  {
    "Structure Smiles String": "COc1cc(/C=C\\c2ccccc2)cc(OC)c1OC",
    "Target Desc": "HCT-116 colon",
    "Reading Qualifier": ">",
    "TGI [µM]": 100
  }
]

---

Tested on: SK-MEL-5 melanoma
Assay: NCI tumour cell line growth inhibition, 48 h
Listing of entries alongside the reported TGI.

[
  {
    "Compound": "CC1CCP(=O)(c2ccccc2)c2ccccc21 (stereo unspecified)",
    "TGI": "> 100 µM"
  },
  {
    "Compound": "Cn1nc2n(c1=O)CCCN2",
    "TGI": "> 100 µM"
  },
  {
    "Compound": "CCc1n(Cc2ccc3ccccc3n2)cc[n+]1Cc1ccc2ccccc2n1",
    "TGI": "1.02 µM"
  },
  {
    "Compound": "O=C(c1ccccc1)C1CCCCN1C(=O)c1ccccc1 (stereo unspecified)",
    "TGI": "> 100 µM"
  },
  {
    "Compound": "C/C(=N\\NC(=S)N1CCCCC1)c1cccc(C)n1",
    "TGI": "0.449 µM"
  },
  {
    "Compound": "CC[N+]1(C)CCC(O)(/C=C/c2ccc(OC)cc2)C(C(=O)/C=C/c2ccc(OC)cc2)C1 (stereo unspecified)",
    "TGI": "31.9 µM"
  },
  {
    "Compound": "O=C1C(c2c[nH]c3ccccc23)=C(c2c[nH]c3ccccc23)C(=O)N1O",
    "TGI": "> 25 µM"
  },
  {
    "Compound": "COc1ccc2c(c1)C(=O)c1c-2n(CCCN=[N+]=[N-])c(=O)c2cc(N(C)C)ccc12",
    "TGI": "> 100 µM"
  },
  {
    "Compound": "CCOC(=O)C1(Br)C(c2ccccc2)NC(=O)NC1(C)Br (stereo unspecified)",
    "TGI": "> 100 µM"
  },
  {
    "Compound": "CCCCc1cc2c(C)cc(=O)oc2c(O)c1O",
    "TGI": "46.5 µM"
  },
  {
    "Compound": "N=c1oc2ccc3ccccc3c2cc1C(N)=O",
    "TGI": "> 100 µM"
  }
]

---

Listing of entries alongside the reported TGI.
System: BT-549 breast
Assay: NCI tumour cell line growth inhibition, 48 h

[
  {
    "Compound": "Cc1cc(=O)n2nc(SCc3ccccc3)sc2n1",
    "TGI": "> 100 µM"
  },
  {
    "Compound": "O=C(O)[C@@H]1[C@H](C(=O)O)[C@H](C(=O)O)C[C@@H]1C(=O)O",
    "TGI": "> 100 µM"
  },
  {
    "Compound": "N#CC(C#N)=C1C(C#N)=C(N)NC12OCCO2",
    "TGI": "> 100 µM"
  },
  {
    "Compound": "N/N=C1/C2CN3CCN(C2)CC1(c1ccc([N+](=O)[O-])cc1)C3",
    "TGI": "> 100 µM"
  },
  {
    "Compound": "CCCCCCCCCCCCCCN",
    "TGI": "> 100 µM"
  },
  {
    "Compound": "CCCCCCCNc1nc(C(=O)OCC)ncc1-c1ccc(C(F)(F)F)cc1",
    "TGI": "97.7 µM"
  },
  {
    "Compound": "CCOC(=O)C1=C(c2ccccc2)N(C)c2ccccc2S1",
    "TGI": "66.6 µM"
  },
  {
    "Compound": "N=C1N(S(=O)(=O)c2ccccc2)[C@@H](Cc2ccccc2)[C@H](c2ccccc2)C1(c1ccccc1)c1ccccc1",
    "TGI": "> 100 µM"
  },
  {
    "Compound": "COc1cccc(CC(C)NCC(O)c2ccc(O)c(O)c2)c1 (stereo unspecified)",
    "TGI": "> 100 µM"
  },
  {
    "Compound": "C=CCN(/C=C1/C(=O)O[C@H](COC)[C@@]2(C)C1=C(O)C(=O)C1=C2[C@H](OC(C)=O)C[C@]2(C)C(=O)CC[C@@H]12)CC=C",
    "TGI": "4.12 µM"
  },
  {
    "Compound": "Cc1ccc(S(=O)(=O)NCCNC2=CC(=O)c3nc4ccccc4c4ccnc2c34)cc1",
    "TGI": "46.1 µM"
  },
  {
    "Compound": "COc1ccc2c(c1)C(=O)c1c-2n(CCCN=[N+]=[N-])c(=O)c2cc(N(C)C)ccc12",
    "TGI": "> 100 µM"
  },
  {
    "Compound": "O=C1C(c2c[nH]c3ccccc23)=C(c2c[nH]c3ccccc23)C(=O)N1O",
    "TGI": "> 25 µM"
  },
  {
    "Compound": "CO/C(=N\\N=C\\c1cccc(Cl)c1)c1ccncc1",
    "TGI": "> 10 µM"
  },
  {
    "Compound": "NC(=S)N/N=C\\c1ccc(OCc2cccc(COc3ccc(/C=N/NC(N)=S)cc3)n2)cc1",
    "TGI": "12.2 µM"
  },
  {
    "Compound": "C[C@@H](O)C(=O)N1[C@@H]2CC3CC[C@]2(CS1(=O)=O)C3(C)C",
    "TGI": "> 100 µM"
  },
  {
    "Compound": "CCc1n(Cc2ccc3ccccc3n2)cc[n+]1Cc1ccc2ccccc2n1",
    "TGI": "11.2 µM"
  },
  {
    "Compound": "COc1ccc(-c2nc3sc(-c4ccc(Cl)cc4)cn3n2)cc1",
    "TGI": "> 50 µM"
  },
  {
    "Compound": "COc1ccc2c(c1)/C(=C\\c1cccnc1)C(=O)N2",
    "TGI": "32.3 µM"
  },
  {
    "Compound": "O=C(Nc1ccc(F)cc1)c1ccc(NC2=C(Cl)C(=O)N(Cc3ccccc3)C2=O)cc1",
    "TGI": "10.8 µM"
  },
  {
    "Compound": "CN(C)/N=C/c1cn(C)c(=O)n(C)c1=O",
    "TGI": "> 100 µM"
  }
]

---

Listing of entries alongside the reported TGI.
Test system: KM12 colon
Experiment: NCI tumour cell line growth inhibition, 48 h
Endpoint Label: TGI (µM)

[
  {
    "Compound": "COc1ccc(-c2cc(=O)c3c(C)cc(C)nc3[nH]2)cc1",
    "Reading Qualifier": ">",
    "Measured Value": 100
  },
  {
    "Compound": "C=C(CCC(C)C1CCC2C3=C(C(=O)CC21C)C1(C)CCC(=O)[C@@H](C)C1CC3=O)C(C)C(=O)O (stereo not given in full)",
    "Reading Qualifier": ">",
    "Measured Value": 100
  },
  {
    "Compound": "CCNc1ccc2c(c1)Cc1ccccc1-2",
    "Reading Qualifier": ">",
    "Measured Value": 100
  },
  {
    "Compound": "CC12N=NN(c3ccc([N+](=O)[O-])cc3)C1(O)c1ccccc1C2=O (stereo not given)",
    "Reading Qualifier": ">",
    "Measured Value": 100
  },
  {
    "Compound": "COC1=CC(=O)C2C(C1=O)[C@@H]1c3ccccc3C[C@H]21 (stereo not given in full)",
    "Reading Qualifier": ">",
    "Measured Value": 100
  },
  {
    "Compound": "O=C(/C=C/c1ccccc1)CC1OC(=O)c2ccccc21 (stereo not given)",
    "Reading Qualifier": ">",
    "Measured Value": 100
  },
  {
    "Compound": "O=C(Nc1cccc([N+](=O)[O-])c1)C(=O)C(C(=O)c1ccccc1-c1ccccc1)C1OC(=O)c2ccccc21 (stereo not given)",
    "Reading Qualifier": "=",
    "Measured Value": 44.2
  },
  {
    "Compound": "O=C(O)C1C2CCC(O2)C1C(=O)N1CCCCC1 (stereo not given)",
    "Reading Qualifier": "=",
    "Measured Value": 37.2
  },
  {
    "Compound": "COc1cc2c(c(OC)c1OC)-c1ccc(N)c(=O)cc1[C@@H](NC(C)=O)CC2",
    "Reading Qualifier": "=",
    "Measured Value": 0.186
  },
  {
    "Compound": "O=[N+]([O-])c1ccc(S(=O)Cc2ccccc2)c([N+](=O)[O-])c1 (stereo not given)",
    "Reading Qualifier": "=",
    "Measured Value": 29.4
  }
]
